- measurement.description: self-splicing fitness, log relative to wild type (ln ratio); higher = more splicing; Tetrahymena group I intron in knt gene, E. coli kanamycin selection, DiMSum; sequences stand for … in CUCUCU…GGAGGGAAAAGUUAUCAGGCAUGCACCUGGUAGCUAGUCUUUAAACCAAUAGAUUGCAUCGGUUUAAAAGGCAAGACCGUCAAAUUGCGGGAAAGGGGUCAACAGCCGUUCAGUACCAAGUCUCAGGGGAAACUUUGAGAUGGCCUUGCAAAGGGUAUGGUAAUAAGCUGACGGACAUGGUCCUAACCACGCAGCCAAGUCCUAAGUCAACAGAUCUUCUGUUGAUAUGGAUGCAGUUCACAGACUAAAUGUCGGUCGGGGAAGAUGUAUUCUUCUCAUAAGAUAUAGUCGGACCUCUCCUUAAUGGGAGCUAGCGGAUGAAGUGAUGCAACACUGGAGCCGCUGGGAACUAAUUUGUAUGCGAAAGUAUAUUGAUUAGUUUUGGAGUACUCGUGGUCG;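 note: selection with 25 µg/mL kanamycin versus none on LB agar overnight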
- experimental.parameters: 37 °C
property.label: self-splicing fitness (ln)

For `GCGAAGCAAUAUUACGAGUG` the sequence record lists self-splicing fitness (ln) as -2.13

For `CGCCAGCAAUAUUACGCAUU` the sequence record lists self-splicing fitness (ln) as -2.01

For `GGGCAGCAAUAUUACGGCAA` the sequence record lists self-splicing fitness (ln) as -0.742

For `CAGAAGCAAUAUUACGUACC` the sequence record lists self-splicing fitness (ln) as -1.55

For `AAUCAGCAAUAUUACGUCUC` the sequence record lists self-splicing fitness (ln) as -0.314

For `UGUGAGCAAUAUUACGAUUG` the sequence record lists self-splicing fitness (ln) as -0.226

For `UGCUAGCAAUAUUACGCGCU` the sequence record lists self-splicing fitness (ln) as -0.777

For `CGGCAGCAAUAUUACGCCUG` the sequence record lists self-splicing fitness (ln) as -1.89

For `UCGAAGCAAUAUUACGUGGG` the sequence record lists self-splicing fitness (ln) as -2.18

For `CUCAAGCAAUAUUACGUAUU` the sequence record lists self-splicing fitness (ln) as -2.58

For `CAAUAGCAAUAUUACGCGGG` the sequence record lists self-splicing fitness (ln) as -1.75

For `AAUGAGCAAUAUUACGAACG` the sequence record lists self-splicing fitness (ln) as -1.74

For `GUGCAGCAAUAUUACGUUAA` the sequence record lists self-splicing fitness (ln) as -1.25
